test system: SW-620 colon; assay: NCI-60 one-dose screen, 48 h; conditions: 10 µM unless noted
This is part of a sample that, as a whole, favours compounds with a hit. Of some 83,000 tested, about 20% had one in any assay. Activity calls are given as the source filed them. Rule for the calls: active = growth percent below 10; inactive = the rest.
API: response.call in t (active), f (inactive)

Before answering, review these 4 worked examples.
[
  {
    "substance.smiles": "NC(N)=N/N=C/c1ccc(-c2ccc(-c3ccc(Cl)cn3)s2)cc1",
    "assigned.category": "t"
  },
  {
    "substance.smiles": "COc1ccc(/C=C/C(=O)c2ccc([N+](=O)[O-])cc2)cc1",
    "assigned.category": "f"
  },
  {
    "substance.smiles": "NNC(=O)c1nc2ccccc2[nH]1",
    "assigned.category": "f"
  },
  {
    "substance.smiles": "CCN1CCN(c2nc(C)cc(N(CCCNc3ccnc4cc(Cl)ccc34)Cc3ccco3)n2)CC1",
    "assigned.category": "f"
  }
]

stdin: Short answer needed: outcome of this test for "COC(=O)[C@]12CC[C@@H](C(=O)/C=C/c3cccnc3)[C@@H]1[C@H]1CC[C@@H]3[C@@]4(C)C/C(=C/c5cccnc5)C(=O)C(C)(C)[C@@H]4CC[C@@]3(C)[C@]1(C)CC2" ?
stdout: t

* * *

tested on: BT-549 breast; test: NCI-60 one-dose screen, 48 h (100 = growth as untreated, 0 = no growth, -100 = all killed); details: 10 µM unless noted
About 83,000 compounds went through this panel and 20% of them were active in at least one assay; those are over-represented in the sample as a whole.
experimental.readout: growth (%)
Please state the figure in %; there is no need to write the unit.

These solved cases illustrate the format of a correct answer.
[
  {
    "compound": "c1csc(-c2nc(-c3cc4ccccc4c(N4CCOCC4)n3)cs2)c1",
    "experimental.readout": "growth",
    "endpoint.result": 103
  },
  {
    "compound": "CCC(c1ccc(OC)cc1)C(CC)c1ccc(O)c(CN2CCCCC2)c1 (centres undefined)",
    "experimental.readout": "growth",
    "endpoint.result": 72.1
  },
  {
    "compound": "Cc1cc2nc3c4cc(N)ccc4n(CCN(C)C)c3nc2cc1C",
    "experimental.readout": "growth",
    "endpoint.result": 45
  }
]

stdin: Recall the recorded growth for "N#C/C(=C\c1ccc(-c2ccc(Br)cc2)o1)c1nc(-c2ccco2)cs1" with BT-549 breast and state it.
stdout: 98

* * *

test system: HCC-2998 colon; assay: NCI-60 one-dose screen, 48 h; details: 10 µM unless noted
Compounds without any hit were thinned out: in the full panel of roughly 83,000, 20% have a hit. The source made the active and inactive calls. Rule for the calls: active = growth percent below 10; inactive = the rest.
API: response.call in Yes for active, No for inactive

[
  {
    "compound": "CCOc1ccc(NC(=O)c2ccoc2COc2ccccc2)cc1",
    "assigned.category": "No"
  },
  {
    "compound": "NCCn1cc(-c2nc(-c3c[nH]c4ncccc34)cs2)c2cc(Br)ccc21",
    "assigned.category": "No"
  },
  {
    "compound": "Nc1nc2c3ccncc3cc(-c3cccc(Cl)c3)c2c2cnccc12",
    "assigned.category": "No"
  }
]

stdin: Short answer needed: outcome of this test for "CCNCCCn1c2c(c3ccc([N+](=O)[O-])cc3c1=O)C(=O)c1cc(OC)cnc1-2" ?
stdout: Yes

stdin: Now the same for COc1ccc2c(c1)C(Br)=C(CCO)C2c1ccccc1 (stereo not given)
stdout: No

stdin: Now the same for "CN(C)c1cccc2[nH]c(-c3[nH]ncc3Nc3ccnc(N)n3)nc12"
stdout: Yes

stdin: Now the same for "COc1ccc2c(c1)c(-c1nc(-c3cn(C)c4ncccc34)cs1)cn2CCN"
stdout: No

stdin: Now the same for O=C1C=C(C(O)c2ccc(O)cc2)C(=O)c2ccccc21 (stereo not given)
stdout: No

stdin: Now the same for "CN1CCN(c2ccc3nc(-c4[nH]ncc4Nc4ncnc5c4OCCCN5)[nH]c3c2)CC1"
stdout: Yes

* * *

tested on: MOLT-4 leukemia; assay: NCI-60 one-dose screen, 48 h (100 = growth as untreated, 0 = no growth, -100 = all killed); conditions: 10 µM unless noted
Compounds without any hit were thinned out: in the full panel of roughly 83,000, 20% have a hit.
Where growth equals or exceeds 70%, the correct label is 1; where it does not, the label is 0.

[
  {
    "compound": "Nc1nc(N)c2nc3c(nc2n1)CCCCCCCCCC3",
    "assigned.category": 0
  },
  {
    "compound": "COC(=O)[C@@H]1[C@H]2C[C@H]3c4[nH]c5cc(OC)ccc5c4CCN3C[C@@H]2C[C@H](OC(=O)/C=C/c2ccnc(OC)c2)[C@H]1OC",
    "assigned.category": 1
  },
  {
    "compound": "C/C(=N\\Nc1ccc2ccccc2n1)c1ccccn1",
    "assigned.category": 0
  },
  {
    "compound": "CCN1CCN(C(=O)[C@]23CCC(C)(C)C[C@H]2C2=CC[C@@H]4[C@@]5(C)CC/C(=N/O)C(C)(C)[C@@H]5CC[C@@]4(C)[C@]2(C)CC3)CC1",
    "assigned.category": 0
  },
  {
    "compound": "O=C(NCN1C(=O)c2cccc3cccc(c23)C1=O)N1CCC(Cc2ccccc2)CC1",
    "assigned.category": 1
  },
  {
    "compound": "N#C/C(=C\\c1ccc(-c2ccccc2)o1)c1nc(-c2ccco2)cs1",
    "assigned.category": 1
  }
]

Now consider a different compound.
stdin: Given "CCc1ccccc1NC(=O)c1sc2nc3c(cc2c1N)CCCC3" , state whether its growth is at least 70%.
stdout: 0

* * *

Entries and their growth values follow.
Test system: NCI-H226 lung
Assay: NCI-60 one-dose screen, 48 h (100 = growth as untreated, 0 = no growth, -100 = all killed)
Settings: 10 µM unless noted
Method: Growth inhibition of the NCI-H226 human Non-Small Cell Lung tumor cell line is measured as a screen for anti-cancer activity. Cells are grown in 96 well plates and exposed to the test compound for 48 hours. Compounds are tested at a single concentration, which is 10^-5 M for most compounds. The reported endpoint is percent growth (GI% or GIPRCNT), where numbers from 0 - 100% represent growth inhibition, and numbers from -100% - 0 represent cell death. […]
The panel holds about 83,000 compounds, 20% with a hit somewhere; the sample as a whole holds those more often.
Please state the figure in %; there is no need to write the unit.

[
  {
    "molecule": "CC(C)(C)n1cc(-c2ccnc(NCCCNS(=O)(=O)c3ccc(Cl)cc3)c2)c(-c2cccc(F)c2)n1",
    "endpoint.result": 80.9
  },
  {
    "molecule": "Cn1cc(-c2csc(-c3cn(CCCN4CCCCC4)c4ccccc34)n2)c2cccnc21",
    "endpoint.result": 52.7
  },
  {
    "molecule": "CCCC1CCCCN1C(=O)OCC(C)C (stereo unspecified)",
    "endpoint.result": 105
  },
  {
    "molecule": "CC(C)=CCC/C(C)=C/CC/C(C)=C/CSC[C@H](NC(=O)CCCCCN1CCN(C)CC1)C(=O)NC1CCCCCC1",
    "endpoint.result": 82.1
  },
  {
    "molecule": "CC(c1ccccc1)N1C(=O)C(C2SC(=S)N(C(C)c3ccccc3)C2=O)SC1=S (stereo unspecified)",
    "endpoint.result": 99.9
  },
  {
    "molecule": "O=S(=O)(NCCNc1cc(-c2cn(-c3ccccc3)nc2-c2cccc(O)c2)ccn1)c1ccc(Cl)cc1",
    "endpoint.result": 45.9
  }
]

stdin: Suppose we examine the molecule "COc1ccc(/C=C/C(=O)c2ccc([N+](=O)[O-])cc2)cc1" ; what growth value has been reported?
stdout: 102

stdin: Now the same for "N#C/C(=C\c1ccc(-c2ccc(Br)cc2)o1)c1nc(-c2cccs2)cs1"
stdout: 102

stdin: Now the same for "COC(=O)c1cc(=O)nc(N/N=C/c2ccc(C)cc2)s1"
stdout: 98.5

stdin: Now the same for "N#CCCCCCn1c2ccccc2c2c3c(c4c5ccccc5n(CCCCCC#N)c4c21)C(=O)N(O)C3=O"
stdout: 79.1

* * *

Entries and their growth values follow.
tested on: MCF7 breast; assay: NCI-60 one-dose screen, 48 h (100 = growth as untreated, 0 = no growth, -100 = all killed); conditions: 10 µM unless noted
About 83,000 compounds went through this panel and 20% of them were active in at least one assay; those are over-represented in the sample as a whole.
Please state the figure in %; there is no need to write the unit.

[
  {
    "compound": "Cc1cc(N2CCN(C)CC2)nc(N(CCNc2ccnc3cc(Cl)ccc23)Cc2ccco2)n1",
    "endpoint.result": 17.1
  },
  {
    "compound": "COc1cc(/C=C/c2cc(/C=C/c3ccc(O)c(OC)c3)n(-c3ccc(Cl)cc3)c(=O)n2)ccc1O",
    "endpoint.result": 47.6
  },
  {
    "compound": "O=S(=O)(NCCNc1cc(-c2cn(-c3ccccc3)nc2-c2cccc(O)c2)ccn1)c1ccc(C(F)(F)F)cc1",
    "endpoint.result": 25.9
  }
]

stdin: Suppose we examine the compound "O=[N+]([O-])c1ccc(N/N=C(\C(=N/Nc2ccc([N+](=O)[O-])cc2[N+](=O)[O-])c2ccccc2)c2ccccc2)c([N+](=O)[O-])c1" ; what growth value has been reported?
stdout: 96.3

stdin: Now the same for "N#Cc1cnc2cc(OC[C@@H](O)CO)c(NC(=O)CC3CSSC3)cc2c1Nc1ccc(OCc2cccc(F)c2)c(Cl)c1"
stdout: -58.8

stdin: Now the same for "N#C/C(=C\c1ccc(-c2ccc(F)cc2)o1)c1nc(-c2ccco2)cs1"
stdout: 11.7

stdin: Now the same for "Cc1nn(-c2ccc(Cl)cc2)c(=O)n1CCn1cnc2ccccc21"
stdout: 95.5

stdin: Now the same for CCCC(=O)N1CCCCC1CC (stereo not drawn)
stdout: 103

stdin: Now the same for "O=C(NO)c1ccc(Cn2c(=O)n(-c3ccccc3)c(=O)c3ccccc32)cc1"
stdout: 33.2

stdin: Now the same for "Cc1ccc(N(CC(=O)Nc2ccc(S(=O)(=O)N3CCC(N4CCCC4)CC3)cc2)S(=O)(=O)c2ccc(Cl)cc2)cc1"
stdout: 14.2

stdin: Now the same for "CC[C@H](CC[C@@H](C)[C@H]1CC[C@H]2[C@@H]3/C(=C/c4cccnc4)C(=O)C4=CC(=O)CC[C@]4(C)[C@H]3CC[C@]12C)C(C)C"
stdout: 51

stdin: Now the same for "C[C@]12CC[C@@H]3c4ccc(O)cc4CC[C@H]3[C@@H]1C[C@H](O)[C@@H]2O"
stdout: 108

stdin: Now the same for "CCOC(=O)N1CCN(CCCCOc2ccc(C(C)(C)CC)cc2)CC1"
stdout: 103

stdin: Now the same for "C=C(C)[C@@H]1CC[C@]2(C(=O)O)CC[C@]3(C)[C@H](CC[C@@H]4[C@@]5(C)C/C(=C/c6cccc(I)c6)C(=O)C(C)(C)[C@@H]5CC[C@]43C)[C@@H]12"
stdout: 19.6

stdin: Now the same for CC1(c2ccccc2)OC1C(=O)O (stereo not drawn)
stdout: 105

stdin: Now the same for "CC(C)/C=C/CC[C@](C)(O)[C@H]1CC[C@]2(C)[C@@H]1CC[C@@H]1[C@@]3(C)C/C(=C/c4cccc(C(F)(F)F)c4)C(=O)C(C)(C)[C@@H]3CC[C@]12C"
stdout: 82

stdin: Now the same for "O=C(NCN1C(=O)c2cccc3cccc(c23)C1=O)N1CCC(Cc2ccccc2)CC1"
stdout: 87.5

stdin: Now the same for "COc1ccc(/C=C(\C#N)c2cc3ccccc3n2S(C)(=O)=O)cc1"
stdout: 66.8

stdin: Now the same for "CC1=NN(c2ccc(S(=O)(=O)O)cc2Cl)C(=O)C1"
stdout: 94.4

stdin: Now the same for "COC(=O)CNc1nc(N(C)O)nc(N(C)O)n1"
stdout: 30.7

stdin: Now the same for "O=C(CCCCCn1c2ccccc2c2c3c(c4c5ccccc5[nH]c4c21)C(=O)N(O)C3=O)N1CCOCC1"
stdout: 15.7

stdin: Now the same for "Clc1ccc2[nH]cc(-c3nc(-c4c[nH]c5ncccc45)cs3)c2c1"
stdout: 35
